These data points were gathered from patent US6620828B2.

# EXPERIMENTAL SYSTEM: FL-CHK1 (Homo sapiens)
# Construct: C-terminally His-tagged full-length human CHK1 (FL-CHK1); 6xHis (C); made in house; host or cells: baculovirus/insect cells
# Sequence (O14757 whole entry): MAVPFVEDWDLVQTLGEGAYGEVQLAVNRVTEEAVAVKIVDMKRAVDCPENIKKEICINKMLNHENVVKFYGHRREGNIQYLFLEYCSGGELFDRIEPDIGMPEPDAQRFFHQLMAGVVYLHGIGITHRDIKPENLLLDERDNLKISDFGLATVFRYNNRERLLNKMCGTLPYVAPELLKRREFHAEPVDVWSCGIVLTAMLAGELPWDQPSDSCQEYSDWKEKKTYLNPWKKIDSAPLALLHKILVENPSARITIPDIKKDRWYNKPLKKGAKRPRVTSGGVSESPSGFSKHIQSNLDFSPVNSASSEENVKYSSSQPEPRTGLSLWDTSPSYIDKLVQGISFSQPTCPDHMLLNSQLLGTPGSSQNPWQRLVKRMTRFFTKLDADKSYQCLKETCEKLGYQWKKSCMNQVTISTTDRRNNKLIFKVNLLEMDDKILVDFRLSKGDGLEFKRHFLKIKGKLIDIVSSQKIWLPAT
# METHOD DESCRIPTION: CHK1 assay
# Assay type: biochemical
# CONDITION CONTEXT: 20 μM; combinatorial library compounds
REPORTED PROPERTY: inhibition at 20 µM (%)

Guide cases for inhibition at 20 µM, answers given:
INSERT INTO assay_data (molecule, test_result) VALUES
  ('COc1ccc2nc(-c3ccccc3)c(-c3csc(-c4sc(Nc5ccc(S(N)(=O)=O)cc5)nc4N)n3)cc2c1', 9.7),
  ('Nc1nc(Nc2ccc(S(N)(=O)=O)cc2)sc1-c1nc(-c2cc3cc(Cl)ccc3o2)cs1', 13.6);

[I] CN(C)c1ccc(Nc2nc(N)c(-c3nc(-c4ccc(C(F)(F)F)cc4)cs3)s2)cc1
[II] Cc1c(C)c(C)c(-c2csc(-c3sc(Nc4ccc(C(C)C)cc4)nc3N)n2)c(C)c1C
[III] COc1ccc(-c2csc(-c3sc(Nc4ccc(S(N)(=O)=O)cc4)nc3N)n2)cc1 [drawing 399]
[IV] COc1ccc(-c2csc(-c3sc(Nc4ccc(C(C)C)cc4)nc3N)n2)c(OC)c1
Ask | I would appreciate it if you could sort these 4 molecules by inhibition at 20 µM, starting from the smallest number. Write the labels, ordered according to the request.
Reply | IV, III, I, II
(IV: 1.8%, III: 6.9%, I: 13.1%, II: 34.9%)

[P] CC(C)c1ccc(Nc2nc(N)c(-c3nc(-c4ccccc4[N+](=O)[O-])cs3)s2)cc1
[Q] CCCCCc1ccc(-c2csc(-c3sc(Nc4ccc(N(C)C)cc4)nc3N)n2)cc1
[R] CN(C)c1ccc(Nc2nc(N)c(-c3nc(-c4ccc(Cl)c([N+](=O)[O-])c4)cs3)s2)cc1
[S] CC(C)c1ccc(Nc2nc(N)c(-c3nc(-c4ccc([N+](=O)[O-])cc4)cs3)s2)cc1
[T] CC(C)c1ccc(Nc2nc(N)c(-c3nc(-c4ccc(Cl)cc4)cs3)s2)cc1
Ask | // sort entries: inhibition at 20 µM, high to low Write the labels, ordered according to the request.
Reply | P, R, Q, S, T

====

# EXPERIMENTAL SYSTEM: CDK2/Cyclin A complex (Homo sapiens)
# METHOD DESCRIPTION: CDK2/Cyclin A assay
# Format: biochemical
# CONDITION CONTEXT: 1.0 μM; combinatorial library compounds
REPORTED PROPERTY: inhibition at 1 µM (%)

Guide cases for inhibition at 1 µM, answers given:
INSERT INTO measurements (chem_smiles, unit_abbreviation, test_result) VALUES
  ('Nc1nc(Nc2ccc(S(N)(=O)=O)cc2)sc1-c1nc(-c2csc3ccccc23)cs1', '%', 48.9),
  ('CC(C)c1ccc(Nc2nc(N)c(-c3nc(-c4ccc(-c5ccc(Cl)cc5Cl)o4)cs3)s2)cc1', '%', 15.1);

[I] Nc1nc(Nc2ccc(S(N)(=O)=O)cc2)sc1-c1nc(-c2cc(-c3ccc(Cl)c(Cl)c3)no2)cs1
[II] Nc1nc(Nc2ccc(S(N)(=O)=O)cc2)sc1-c1nc(-c2c(Cl)c(Cl)nc(Cl)c2Cl)cs1
[III] CC(C)c1ccc(Nc2nc(N)c(-c3nc(-c4ccc(-c5ccccc5)cc4)cs3)s2)cc1
Ask | I would appreciate it if you could sort these 3 compounds by inhibition at 1 µM, starting from the smallest number. Write the labels, ordered according to the request.
Reply | III, I, II

====

Measured inhibition at 0.01 µM accompanies every entry in the list below.
# System: human umbilical vein endothelial cells (HUVEC)
# METHOD DESCRIPTION: HUVEC proliferation assay
# Format: cell-based
# CONDITION CONTEXT: Homo sapiens, HUVEC, Table II screening results; 10 nM; crude combinatorial amide library; read-out: % inhibition @ 10 nM
Quick reminder: number only, in %, skip the unit.

Guide cases for inhibition at 0.01 µM, answers given:
INSERT INTO results (compound, experimental_system, reported_property, unit_abbreviation, test_result) VALUES
  ('CNC(=O)Nc1nc(N)c(-c2nc(-c3cccc(NC(=O)C4CC(=O)OC4(C)C)c3)cs2)s1 (stereo not shown)', 'human umbilical vein endothelial cells (HUVEC)', 'inhibition at 0.01 µM', '%', -10),
  ('CNC(=O)Nc1nc(N)c(-c2nc(-c3cccc(NC(=O)c4cccc(OC)c4)c3)cs2)s1 [drawing 1034]', 'human umbilical vein endothelial cells (HUVEC)', 'inhibition at 0.01 µM', '%', 91),
  ('CNC(=O)Nc1nc(N)c(-c2nc(-c3cccc(NC(=O)c4cc(OC)ccc4C#N)c3)cs2)s1', 'human umbilical vein endothelial cells (HUVEC)', 'inhibition at 0.01 µM', '%', -1),
  ('CNC(=O)Nc1nc(N)c(-c2nc(-c3cccc(NC(=O)C4CC(=O)N(C)C4)c3)cs2)s1 (stereo not shown)', 'human umbilical vein endothelial cells (HUVEC)', 'inhibition at 0.01 µM', '%', -4),
  ('CNC(=O)Nc1nc(N)c(-c2nc(-c3cccc(NC(=O)C4C[C@H]5C=C[C@@H]4C5)c3)cs2)s1 (stereo partly shown)', 'human umbilical vein endothelial cells (HUVEC)', 'inhibition at 0.01 µM', '%', -18);

Ask | # inhibition at 0.01 µM lookup, item CNC(=O)Nc1nc(N)c(-c2nc(-c3cccc(NC(=O)C(=O)CC(C)C)c3)cs2)s1
Reply | 11

Ask | # inhibition at 0.01 µM lookup, item CNC(=O)Nc1nc(N)c(-c2nc(-c3cccc(NC(=O)C4C(C=C(C)C)C4(C)C)c3)cs2)s1 (stereo not shown)
Reply | 12

Ask | # inhibition at 0.01 µM lookup, item CNC(=O)Nc1nc(N)c(-c2nc(-c3cccc(NC(=O)C(C)C)c3)cs2)s1
Reply | -45

Ask | # inhibition at 0.01 µM lookup, item CNC(=O)Nc1nc(N)c(-c2nc(-c3cccc(NC(=O)Cc4c(F)cccc4F)c3)cs2)s1
Reply | -2

Ask | # inhibition at 0.01 µM lookup, item CNC(=O)Nc1nc(N)c(-c2nc(-c3cccc(NC(=O)c4cc(C)[nH]c4C)c3)cs2)s1
Reply | -13

====

# EXPERIMENTAL SYSTEM: CDK2/Cyclin A complex (Homo sapiens, UniProt P24941)
# METHOD DESCRIPTION: CDK2/Cyclin A assay
# Type: biochemical
# CONDITION CONTEXT: Table 2
pKi: −log10 of the molar value.
REPORTED PROPERTY: pKi

INSERT INTO results (chem_smiles, test_result) VALUES
  ('Nc1nc(Nc2ccc(S(N)(=O)=O)cc2)sc1-c1nc(C(=O)c2ccccc2)cs1', 7.82),
  ('Nc1nc(Nc2ccc(S(N)(=O)=O)cc2)sc1-c1nc(-c2cccc(O)c2)cs1', 6.66);

[a] Nc1cccc(C(=O)c2csc(-c3sc(Nc4ccc(S(N)(=O)=O)cc4)nc3N)n2)c1
[b] Nc1nc(Nc2ccc(S(N)(=O)=O)cc2)sc1-c1nc(/C=C/c2ccc(O)cc2)cs1
Ask | Could you kindly indicate whether a or b has the higher pKi value? Answer by quoting the chosen item's label.
Reply | a

[A] Nc1nc(Nc2ccc(S(N)(=O)=O)cc2)sc1-c1nc(-c2ccc(Cl)c(O)c2)cs1
[B] COc1cc(Nc2nc(N)c(-c3nc(-c4ccc(O)c(O)c4)cs3)s2)cc(OC)c1OC
Ask | Could you kindly indicate whether A or B has the higher pKi value? Answer by quoting the chosen item's label.
Reply | A

====

# EXPERIMENTAL SYSTEM: CDK4/Cyclin D3 complex (Homo sapiens, UniProt P11802)
# Construct: made in house; host or cells: insect cells co-infected with baculovirus vectors
# Sequence (P11802 whole entry): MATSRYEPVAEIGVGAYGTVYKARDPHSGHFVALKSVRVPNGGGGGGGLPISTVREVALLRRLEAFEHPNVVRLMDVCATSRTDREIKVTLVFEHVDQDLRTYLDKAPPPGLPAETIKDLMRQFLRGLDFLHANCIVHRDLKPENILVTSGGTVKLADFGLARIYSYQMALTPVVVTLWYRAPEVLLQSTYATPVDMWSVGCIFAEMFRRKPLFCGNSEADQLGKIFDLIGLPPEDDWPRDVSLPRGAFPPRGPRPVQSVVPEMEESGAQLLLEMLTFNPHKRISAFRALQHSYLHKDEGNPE
# Sequence (P30281 whole entry partner): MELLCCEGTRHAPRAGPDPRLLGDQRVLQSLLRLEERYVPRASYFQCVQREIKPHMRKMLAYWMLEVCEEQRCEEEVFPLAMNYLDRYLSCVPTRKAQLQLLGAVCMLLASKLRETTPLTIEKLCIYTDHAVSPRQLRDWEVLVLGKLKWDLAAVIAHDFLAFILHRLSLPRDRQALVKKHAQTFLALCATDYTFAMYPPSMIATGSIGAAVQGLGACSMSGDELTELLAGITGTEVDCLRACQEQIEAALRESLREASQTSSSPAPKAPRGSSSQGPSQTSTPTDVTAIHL
# METHOD DESCRIPTION: CDK4/Cyclin D assay
# Type: biochemical
# CONDITION CONTEXT: 1.0 μM; combinatorial library compounds
REPORTED PROPERTY: inhibition at 1 µM (%)

[a] CN(C)c1ccc(Nc2nc(N)c(-c3nc(-c4ccc(Cl)c([N+](=O)[O-])c4)cs3)s2)cc1
[b] CN(C)c1ccc(Nc2nc(N)c(-c3nc(-c4cccc(Br)c4)cs3)s2)cc1
[c] Cn1cc(-c2csc(-c3sc(Nc4ccc(S(N)(=O)=O)cc4)nc3N)n2)cc1C(=O)C(Cl)(Cl)Cl
Ask | Order the records, beginning with the lowest inhibition at 1 µM and ending with the highest. Write the labels, ordered according to the request.
Reply | c, b, a

====

# EXPERIMENTAL SYSTEM: CDK4/Cyclin D3 complex (Homo sapiens, UniProt P11802)
# Construct: made in house; host or cells: insect cells co-infected with baculovirus vectors
# METHOD DESCRIPTION: CDK4/Cyclin D assay
# Assay type: biochemical
# CONDITION CONTEXT: 1.0 μM; combinatorial library compounds
REPORTED PROPERTY: inhibition at 1 µM (%)

Guide cases for inhibition at 1 µM, answers given:
INSERT INTO assay_data (molecule, test_result) VALUES
  ('CN(C)c1ccc(Nc2nc(N)c(-c3nc(-c4cc(-c5ccccc5)no4)cs3)s2)cc1', 29.6),
  ('CCN(CC)c1ccc(-c2csc(-c3sc(Nc4ccc(C(C)C)cc4)nc3N)n2)cc1', 73),
  ('CC(C)c1ccc(Nc2nc(N)c(-c3nc(-c4ccc([N+](=O)[O-])cc4)cs3)s2)cc1', 35.6),
  ('COc1cc(OC)c(-c2csc(-c3sc(Nc4ccc(N(C)C)cc4)nc3N)n2)c(O)c1Cl', 69.3),
  ('COc1ccc(-c2csc(-c3sc(Nc4ccc(N(C)C)cc4)nc3N)n2)c(OC)c1', 35.4),
  ('CCN(CC)c1ccc(-c2csc(-c3sc(Nc4ccc(S(N)(=O)=O)cc4)nc3N)n2)cc1', 29.3),
  ('Nc1nc(Nc2ccc(S(N)(=O)=O)cc2)sc1-c1nc(-c2ccc(Cl)cc2Cl)cs1 [drawing 406]', 79.2),
  ('COc1ccccc1-c1csc(-c2sc(Nc3ccc(N(C)C)cc3)nc2N)n1', 8.7),
  ('CN(C)c1ccc(Nc2nc(N)c(-c3nc(-c4ccc(Cl)cc4)cs3)s2)cc1', 36.5),
  ('CC(C)c1ccc(Nc2nc(N)c(-c3nc(-c4cccc(OC(=O)c5ccccc5)c4)cs3)s2)cc1', 48);

[P] CN(C)c1ccc(Nc2nc(N)c(-c3nc(-c4ccc5c(c4)OCCO5)cs3)s2)cc1
[Q] CC(C)c1ccc(Nc2nc(N)c(-c3nc(-c4ccc(F)c(F)c4)cs3)s2)cc1
Ask | Which gives the smaller inhibition at 1 µM number: P or Q ? Answer by quoting the chosen item's label.
Reply | Q
